Data origin: PubChem BioAssay AID1347420

target.or.system: Sulfhydryl oxidase 1 (Homo sapiens)
measurement.notes: QSOX1 enzyme inhibitors, primary screen, biochemical, HyperBlu H2O2 luminescence, HTS (AID 1347420); note: values above 100% were filed as inconclusive
run.parameters: recombinant QSOX1, HyperBlu H2O2 luminescence, at 12.5 µM, active compounds read high; active = any value above zero unless noted
Among all 1,300 compounds or so, about 980 (75%) were called active. Roughly 4% stayed inconclusive and do not appear here. The list shows a part of the results.
Choose the fitting class; nothing outside active, inactive is accepted.

[Q] Any idea what this test logged for `O=c1[nH]c2ccccc2n1C1CCN(CCCC(c2ccc(F)cc2)c2ccc(F)cc2)CC1` ?
[A] inactive

[Q] Give the logged outcome of this assay for the following compound: C[C@@H]1O[C@@H](O[C@H]2C[C@@H](O)[C@]3(CO)[C@@H]4C(CC[C@]3(O)C2)[C@@]2(O)CC[C@H](C3COC(=O)C3)[C@@]2(C)C[C@H]4O)[C@H](O)[C@H](O)[C@H]1O (some centres undefined)
[A] active

[Q] Hey, what did the test say about `C[C@@H]1O[C@@H](O[C@H]2C[C@@H](O)[C@]3(CO)[C@H]4[C@H](O)C[C@]5(C)[C@@H](C6=CC(=O)OC6)CC[C@]5(O)[C@@H]4CC[C@]3(O)C2)[C@H](O)[C@H](O)[C@H]1O` ?
[A] active

[Q] Fill in: this test's call for `Cc1ccc(S(=O)(=O)N[C@@H](CCCCN)C(=O)CCl)cc1` is ___
[A] active
